- assay_details: Ribociclib plasma pharmacokinetics
- Assay type: in vivo, human
- test_context: female, human, plasma, oral, Cmax at steady state, at the RP2D
measure_name: Cmax (ng/mL)
Provide only the numeric value, understood in ng/mL.

Indicate its recorded Cmax; the compound in question is `CN(C)C(=O)c1cc2cnc(Nc3ccc(N4CCNCC4)cn3)nc2n1C1CCCC1`
773

====

- assay_details: Ribociclib plasma pharmacokinetics
- Format: in vivo, human
- test_context: female, human, plasma, oral, geometric mean Cmax at steady state, dose-escalation group 2
measure_name: Cmax

Indicate its recorded Cmax; the compound in question is `CN(C)C(=O)c1cc2cnc(Nc3ccc(N4CCNCC4)cn3)nc2n1C1CCCC1`
289 to 955 ng/mL

====

- assay_details: Ribociclib plasma pharmacokinetics
- Assay type: in vivo, human
- test_context: female, human, plasma, oral, geometric mean AUC0–24h at steady state, dose-escalation group 1
measure_name: AUC(0-t)

Indicate its recorded AUC(0-t); the molecule in question is `CN(C)C(=O)c1cc2cnc(Nc3ccc(N4CCNCC4)cn3)nc2n1C1CCCC1`
4570 to 11100 ng·h/mL

====

- assay_details: Ribociclib plasma pharmacokinetics
- Format: in vivo, human
- test_context: female, human, plasma, oral, geometric mean Cmax at steady state, dose-escalation group 1, 200–350 mg dose
measure_name: Cmax

Indicate its recorded Cmax; the molecule in question is `CN(C)C(=O)c1cc2cnc(Nc3ccc(N4CCNCC4)cn3)nc2n1C1CCCC1`
413 to 1000 ng/mL

====

- assay_details: Ribociclib plasma pharmacokinetics
- Type: in vivo, human
- test_context: female, human, plasma, oral
measure_name: Tmax

Indicate its recorded Tmax; the molecule in question is `CN(C)C(=O)c1cc2cnc(Nc3ccc(N4CCNCC4)cn3)nc2n1C1CCCC1`
1 to 4 h

====

- assay_details: Everolimus whole blood pharmacokinetics
- Type: in vivo, human
- test_context: female, human, whole blood, oral, geometric mean Cmax at steady state, everolimus 2.5 mg, dose-escalation group 2
measure_name: Cmax

Indicate its recorded Cmax; the compound in question is CO[C@H]1C[C@@H]2CC[C@@H](C)[C@@](O)(O2)C(=O)C(=O)N2CCCC[C@H]2C(=O)O[C@H]([C@H](C)C[C@@H]2CC[C@@H](OCCO)[C@H](OC)C2)CC(=O)[C@H](C)/C=C(\C)[C@@H](O)[C@@H](OC)C(=O)[C@H](C)C[C@H](C)/C=C/C=C/C=C/1C [everolimus]
8.25 to 29.4 ng/mL

====

- assay_details: Ribociclib plasma pharmacokinetics
- Format: in vivo, human
- test_context: female, human, plasma, oral, geometric mean AUC0–24h at steady state, dose-escalation group 2
measure_name: AUC(0-t)

Indicate its recorded AUC(0-t); the compound in question is CN(C)C(=O)c1cc2cnc(Nc3ccc(N4CCNCC4)cn3)nc2n1C1CCCC1 [ribociclib]
3970 to 13400 ng·h/mL

====

- assay_details: Everolimus whole blood pharmacokinetics
- Assay type: in vivo, human
- test_context: female, human, whole blood, oral
measure_name: Tmax

Indicate its recorded Tmax; the compound in question is `CO[C@H]1C[C@@H]2CC[C@@H](C)[C@@](O)(O2)C(=O)C(=O)N2CCCC[C@H]2C(=O)O[C@H]([C@H](C)C[C@@H]2CC[C@@H](OCCO)[C@H](OC)C2)CC(=O)[C@H](C)/C=C(\C)[C@@H](O)[C@@H](OC)C(=O)[C@H](C)C[C@H](C)/C=C/C=C/C=C/1C`
1 to 2 h

====

- assay_details: Everolimus whole blood pharmacokinetics
- Format: in vivo, human
- test_context: female, human, whole blood, oral, AUC0–24h at steady state, everolimus 2.5 mg, dose-escalation group 1
measure_name: AUC(0-t)

Indicate its recorded AUC(0-t); the molecule in question is `CO[C@H]1C[C@@H]2CC[C@@H](C)[C@@](O)(O2)C(=O)C(=O)N2CCCC[C@H]2C(=O)O[C@H]([C@H](C)C[C@@H]2CC[C@@H](OCCO)[C@H](OC)C2)CC(=O)[C@H](C)/C=C(\C)[C@@H](O)[C@@H](OC)C(=O)[C@H](C)C[C@H](C)/C=C/C=C/C=C/1C`
166 to 307 ng·h/mL

====

- assay_details: Everolimus whole blood pharmacokinetics
- Assay type: in vivo, human
- test_context: female, human, whole blood, oral, geometric mean Cmax at steady state, everolimus 2.5 mg, dose-escalation group 1
measure_name: Cmax

Indicate its recorded Cmax; the compound in question is CO[C@H]1C[C@@H]2CC[C@@H](C)[C@@](O)(O2)C(=O)C(=O)N2CCCC[C@H]2C(=O)O[C@H]([C@H](C)C[C@@H]2CC[C@@H](OCCO)[C@H](OC)C2)CC(=O)[C@H](C)/C=C(\C)[C@@H](O)[C@@H](OC)C(=O)[C@H](C)C[C@H](C)/C=C/C=C/C=C/1C [everolimus]
19.7 to 30.3 ng/mL

====

- assay_details: Ribociclib plasma pharmacokinetics
- Format: in vivo, human
- test_context: female, human, plasma, oral, geometric mean effective half-life based on drug accumulation, dose-escalation group 2
measure_name: half-life

Indicate its recorded half-life; the molecule in question is `CN(C)C(=O)c1cc2cnc(Nc3ccc(N4CCNCC4)cn3)nc2n1C1CCCC1`
29.5 to 49.9 h

====

- assay_details: Ribociclib plasma pharmacokinetics
- Type: in vivo, human
- test_context: female, human, plasma, oral, geometric mean effective half-life based on drug accumulation, dose-escalation group 1
measure_name: half-life

Indicate its recorded half-life; the compound in question is `CN(C)C(=O)c1cc2cnc(Nc3ccc(N4CCNCC4)cn3)nc2n1C1CCCC1`
24.9 to 47.6 h
